Entries and their Ki values follow.
Molecular target: M3 muscarinic receptor subtype (Rattus norvegicus)
Construct: Submandibular glands and heart were isolated and placed in ice cold homogenising buffer; from tissue; host or cells: rat submandibular gland membrane homogenate
Sequence (P08483 whole entry): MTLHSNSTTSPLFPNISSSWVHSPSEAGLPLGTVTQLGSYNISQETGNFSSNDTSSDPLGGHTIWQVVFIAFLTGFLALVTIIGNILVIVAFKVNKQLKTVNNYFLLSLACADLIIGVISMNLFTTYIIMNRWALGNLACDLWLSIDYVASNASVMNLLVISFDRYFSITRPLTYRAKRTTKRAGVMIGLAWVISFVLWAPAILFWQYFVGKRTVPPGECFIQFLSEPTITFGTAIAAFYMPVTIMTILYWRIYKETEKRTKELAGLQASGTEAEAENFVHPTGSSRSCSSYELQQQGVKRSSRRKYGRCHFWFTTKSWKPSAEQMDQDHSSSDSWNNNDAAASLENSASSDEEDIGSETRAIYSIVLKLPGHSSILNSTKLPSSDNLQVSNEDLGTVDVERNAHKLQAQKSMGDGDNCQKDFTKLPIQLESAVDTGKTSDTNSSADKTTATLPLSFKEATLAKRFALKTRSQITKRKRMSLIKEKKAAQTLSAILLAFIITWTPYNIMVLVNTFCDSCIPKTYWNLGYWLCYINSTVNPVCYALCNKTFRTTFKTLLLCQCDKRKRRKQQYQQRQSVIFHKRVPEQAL
Assay: biochemical
Type: binding
Dear colleague, please return just the value in nM, with no unit written.

CC(C)=CCCN1C[C@@H]2[C@H](C1)[C@H]2NC(=O)[C@@](O)(c1ccccc1)C1CCC(F)(F)C1 (single isomer, unassigned) [Compound 13B]    2000
O=C(N[C@H]1[C@@H]2CN(CCc3ccc4c(c3)OCO4)C[C@@H]21)[C@](O)(c1ccccc1)C1CCC(F)(F)C1 (stereo partly shown) [Compound 9]    79.4

Qu. I am curious: what Ki value has been reported for O=C(N[C@H]1[C@@H]2CN(CCc3ccc4c(c3)OCO4)C[C@@H]21)[C@@](O)(c1ccccc1)C1CCC(F)C1 (stereo partly shown) [Compound 11] ?
Ans. 63.1

Qu. Proceed to CC(C)=CCCN1CC2C(C1)C2NC(=O)C(O)(c1ccccc1)C1CCC(F)(F)C1 (single isomer, unassigned) [Compound 14]
Ans. 1580

Where these numbers come from: patent US7560479B2
